As shown below, each of these compounds has a reported GI50 value.
system: HCC-2998 colon; assay: NCI tumour cell line growth inhibition, 48 h

Reference set, count: 6
1. Cc1ccc(Nc2cc(C)nc(NCCCNc3ccnc4cc(Cl)ccc34)n2)cc1 :: 1380 nM
2. CCCCCCCCCCCCCCCCCCOc1ccccc1CC(=O)NCC[N+](C)(C)C :: 3150 nM
3. COc1cccc(C2SC(C)C(=O)N2CCc2cccs2)c1 (configuration not stated) :: 2930 nM
4. COc1cccc(N=N/C(=N\NC(=O)c2cc(Br)ccc2O)c2ccc(N(CCC#N)CCC#N)cc2OC)c1 :: 21.3 µg/mL
5. Clc1ccc(CNc2nccc(-c3cnn4ncccc34)n2)cc1 :: 6670 nM
6. Nc1c(C(=O)N/N=C/c2ccc(-c3cc(Cl)c(Cl)cc3Cl)o2)cnn1-c1ccnc2c(C(F)(F)F)cccc12 :: 3640 nM

For COc1ccc(-c2ccc(-c3ccc(C(=N)N)cn3)o2)cc1Cl the compound record lists GI50 as 1880 nM

GI50 measured on CNC1=C(C(=O)OC)SC(c2ccccc2)(c2ccccc2)SC1 = 13100 nM

// recorded GI50 for COC(=O)[C@]12CC[C@@H](C)[C@H](C)[C@@H]1C1=CC[C@@H]3[C@@]4(C)C(C=O)=C[C@@](C)(COS(C)(=O)=O)C4[C@H](O)C[C@@]3(C)[C@]1(C)CC2 (some centres not stated) : 1690 nM

Recorded GI50 (compound CCN(CC)CCn1c2ccc(OC)cc2c2sc3cc(OC)ccc3c(=O)c21 ): 1480 nM

Lab book: GI50 of C=C(CNC(=O)c1ccccc1)c1ccc(C(=O)Nc2ccccc2N)cc1 noted as 9300 nM

###

test system: CCRF-CEM leukemia; assay: NCI tumour cell line growth inhibition, 48 h
TGI listing for selected compounds.

// below: answered compounds
1) NC(=O)c1ccccc1NC(=O)c1ccccc1Cl :: > 100 µM
2) COc1c(C)c(C/C=C(\C)CC/C=C(\C)CC/C=C(\C)CCC=C(C)C)c(OC)c2ccccc12 :: 64.1 µM
3) COc1cc(OC2OC(COC(=O)c3cc(O)c(O)c(O)c3)C(O)C(O)C2O)ccc1O (stereo not given) :: > 100 µM
4) COc1ccc2c(c1)CCN1CCCc3ccccc3C21 (stereo not given) :: > 100 µM

Now turn to the next compound.
Measured TGI, N#C/C(=C\c1c(-c2ccccc2)[nH]c2ccccc12)C(=O)c1ccccc1 : > 100 µM

###

# Lookup of reported TGI keyed by entry
tested on: SF-268 CNS; experiment: NCI tumour cell line growth inhibition, 48 h
API: value field is a number in µM; no unit string.

1. CCOc1ccc(/C=C2\NC(=S)N(/C=C3\C(=O)Oc4ccccc4C3=O)C2=O)cc1 :: 68

Hey, SF-268 CNS data for COc1ccc2c(c1)c1nn(CCN3CCCCC3)c3ccc4c(=O)n(CCN(C)C)c(=O)n2c4c13 : TGI came out at 0.0766

Kindly note: SF-268 CNS, CCN(CC)CCn1c2ccc(OC)cc2c2sc3cc(OC)ccc3c(=O)c21 , TGI value reported: 5.35

Sample NCCCN1CCN(CCCNc2nc3ccccc3c3[nH]c4ccccc4c23)CC1 , system: SF-268 CNS. Its TGI is 1.94

Case O=C(N/C(=C\c1ccc(/C=C(\NC(=O)c2ccccc2)c2nc3ccccc3s2)cc1)c1nc2ccccc2s1)c1ccccc1 , SF-268 CNS, TGI recorded as 21.1

Bench note, SF-268 CNS: entry CCCCCCCCCCCCCCCCCCOc1ccccc1CC(=O)NCC[N+](C)(C)C , its TGI = 39.9

SF-268 CNS data for S=c1sc2cscc2s1 ; its TGI: 64.5

Summary: CC12CCC(C(=Nc3cc(C(F)(F)F)cc(C(F)(F)F)c3)C1=O)C2(C)C (stereo not given) , SF-268 CNS, TGI = 84.5
